# Test system: CCRIS mutagenicity, Ames/micronucleus/aberration tests
# experiment_description: CCRIS mutagenicity studies
# applied_conditions: Test System: AMES SALMONELLA TYPHIMURIUM; Strain/Indicator: TA100; Metabolic Activation: RAT, LIVER, S-9, PHENOBARBITAL AND 5,6-BENZOFLAVONE; Method: PREINCUBATION
Activity calls are given as the source filed them. The rule behind the calls is not given here.
In this exercise, the only acceptable responses are active, inactive

Example entries and their recorded answers appear below.
compound	tested_system	class
O=C1C=CC(=O)c2ccccc21	CCRIS mutagenicity, Ames/micronucleus/aberration tests	active
O=C1C=CC(=O)C(c2ccccc2)=C1	CCRIS mutagenicity, Ames/micronucleus/aberration tests	inactive
COC(=O)C1=C(C)NC(C)=C(C(=O)OCCc2ccc(N3CCN(C(c4ccccc4)c4ccccc4)CC3)cc2)C1c1cccc([N+](=O)[O-])c1 (stereo not drawn)	CCRIS mutagenicity, Ames/micronucleus/aberration tests	inactive
O=[N+]([O-])c1ccc(CO)c([N+](=O)[O-])c1	CCRIS mutagenicity, Ames/micronucleus/aberration tests	active
O=C1C=C(Nc2ccccc2)C(=O)c2ccccc21	CCRIS mutagenicity, Ames/micronucleus/aberration tests	inactive
Cc1cnc2ccccc2c1	CCRIS mutagenicity, Ames/micronucleus/aberration tests	active

Which outcome was entered for the compound `Fc1cnc2cccc(F)c2c1` in this test?
inactive

In this assay, the call recorded for `O=C1C=CC(=O)c2c(O)c(Cl)c(Cl)c(O)c21` was what?
inactive

Source of measurements: PubChem BioAssay AID1259407
